These measurements were taken from ChEMBL document CHEMBL1129202.

tested on: CCRF-CEM; assay: In vitro cytotoxic activity against CCRF-CEM human lymphoblastoid cells in culture.; type: functional, cell-based
Provide the reported pIC50 of each item.
Answers are plain numbers, as −log10 of the molar value.

Solved cases below.
>  <structure-as-smiles>
Cc1ccc(C(=O)/C=C/c2cc(O)nc(O)n2)cc1

>  <pIC50>
5.74

$$$$
>  <structure-as-smiles>
Cc1ccc(C(=O)/C=C/c2nc(O)nc(O)c2Cl)cc1

>  <pIC50>
4.91

$$$$
>  <structure-as-smiles>
Cc1ccc(C(=O)/C=C/c2nc(O)nc(O)c2Br)cc1

>  <pIC50>
5.59

$$$$
>  <structure-as-smiles>
COc1ccc(C(=O)/C=C/c2cc(O)nc(O)n2)cc1

>  <pIC50>
5.66

$$$$

Attention now shifts to the item below.
Query: I would be grateful if you could share the reported pIC50 for "Cc1ccc(C(=O)/C=C/c2nc(O)nc(O)c2I)cc1" .
Reply: 5.85
